System: SAGPY (Arrowhead (Pygmaea))
Experiment: Preemergence weed control under flooded paddy conditions
Assay type: in vivo, Sagittaria pygmaea
Settings: 0.0625 kg/ha, rated 3-4 weeks after treatment
Decision: SAGPY herbicidal effect rating beneath 4 gives condition met; SAGPY herbicidal effect rating meeting or exceeding 4 gives condition not met.

C#CCOC(=O)CN1C(=O)CSC1=Nc1cc(-n2c(=O)cc(C(F)(F)F)n(C)c2=O)c(F)cc1Cl : condition met

Request: A record lists C#CCOC(=O)CC1SC(=Nc2cc(-n3c(=O)cc(C(F)(F)F)n(C)c3=O)c(F)cc2Cl)N(C)C1=O (centres unmarked) . Is its SAGPY herbicidal effect rating below 4?
Response: condition not met

Request: Dear reviewer, please state whether CN1C(=O)C(CC(=O)OCCF)SC1=Nc1cc(-n2c(=O)cc(C(F)(F)F)n(C)c2=O)c(F)cc1Cl (centres unmarked) has SAGPY herbicidal effect rating strictly beneath 4.
Response: condition met

Request: Input CCOC(=O)CN1C(=O)C(CC(=O)NOC)SC1=Nc1cc(-n2c(=O)cc(C(F)(F)F)n(C)c2=O)c(F)cc1Cl (centres unmarked) ; condition: SAGPY herbicidal effect rating strictly below 4. Does it hold?
Response: condition not met

---

System: GLXMAW (Soybean, Williams)
Experiment: Preemergence herbicidal evaluation
Format: in vivo, Glycine max, (L.) Merr. cv Williams
Settings: rate 0.2500 kg/ha; rated 4-5 weeks after treatment
value.kind: GLXMAW preemergence herbicidal rating
The reply should be a number, written without any unit.

Examples with answers:
CCOC(=O)CN1C(=O)C2(CC2)SC1=Nc1cc(-n2c(=O)cc(C(F)(F)F)n(C)c2=O)c(F)cc1Cl [Compound 15] : 5.5
CCOC(=O)CN1C(=O)CO/C1=N/c1cc(-n2c(=O)cc(C(F)(F)F)n(C)c2=O)c(F)cc1Cl [Compound 22] : 9.0
CCOC(=O)CN1C(=O)C(Cc2ccccc2)SC1=Nc1cc(-n2c(=O)cc(C(F)(F)F)n(C)c2=O)c(F)cc1Cl (stereo not shown) [Compound 24] : 0.0

Below: the item to evaluate.
Request: Requested field: GLXMAW preemergence herbicidal rating. Item: CN(C)N1C(=O)CSC1=Nc1cc(-n2c(=O)cc(C(F)(F)F)n(C)c2=O)c(F)cc1Cl [Compound 23]
Response: 7.0

---

Test system: SAGPY (Arrowhead (Pygmaea))
Assay: Preemergence weed control under flooded paddy conditions
Type: in vivo, Sagittaria pygmaea
Conditions: 0.0625 kg/ha, rated 3-4 weeks after treatment
Recorded Herbicidal rating SAGPY for the following compounds
Response field accepts a number only; no unit should be typed.

Cn1c(C(F)(F)F)cc(=O)n(-c2cc(N=C3SCC(=O)N3CC(=O)OC(C)(C)C)c(Cl)cc2F)c1=O [Compound 43] : 7.0
CCOC(=O)CN1C(=O)C(Cc2ccccc2OC)SC1=Nc1cc(-n2c(=O)cc(C(F)(F)F)n(C)c2=O)c(F)cc1Cl (stereo not drawn) [Compound 37] : 0.0
C=CCN1C(=O)CSC1=Nc1cc(N2C(=O)C3=C(CCCC3)C2=O)c(F)cc1Cl [Compound 2] : 0.0
CCOC(=O)CN1C(=O)C(CC(=O)OC)S/C1=N/c1cc(-n2c(=O)cc(C(F)(F)F)n(C)c2=O)c(F)cc1Cl (stereo not drawn) [Compound 54] : 0.0
CCOC(=O)CN1C(=O)C2(CC2)SC1=Nc1cc(-n2c(=O)cc(C(F)(F)F)n(C)c2=O)c(F)cc1Cl [Compound 15] : 0.0

Request: Which Herbicidal rating SAGPY is listed for CCOC(=O)CN1C(=O)CS(=O)(=O)C1=Nc1cc(-n2c(=O)cc(C(F)(F)F)n(C)c2=O)c(F)cc1Cl [Compound 46] ?
Response: 0.0

---

Test system: CASOB (Sicklepod)
Assay: Postemergence herbicidal evaluation
Format: in vivo, Cassia obtusifolia
Settings: postemergence, rate 0.0625 kg/ha
Reported Herbicidal rating CASOB values for the following compounds.
Enter the number alone.

Some compounds with recorded Herbicidal rating CASOB:
Cn1c(C(F)(F)F)cc(=O)n(-c2cc(N=C3SCC(=O)N3Cc3ccc(C(F)(F)F)cc3)c(Cl)cc2F)c1=O : 0.0
Cn1c(C(F)(F)F)cc(=O)n(-c2cc(N=C3SCC(=O)N3Cc3ccc(F)cc3)c(Cl)cc2F)c1=O : 4.0
Cn1c(C(F)(F)F)cc(=O)n(-c2cc(N=C3SCC(=O)N3Cc3cc(Cl)cc(Cl)c3)c(Cl)cc2F)c1=O : 3.0
CN(C)c1ccc(CN2C(=O)CSC2=Nc2cc(-n3c(=O)cc(C(F)(F)F)n(C)c3=O)c(F)cc2Cl)cc1 : 6.0

Read the next record carefully.
Request: # Herbicidal rating CASOB lookup, item Cn1c(C(F)(F)F)cc(=O)n(-c2cc(N=C3SCC(=O)N3Cc3ccccn3)c(Cl)cc2F)c1=O
Response: 3.0

---

Test system: ECHORC (Watergrass (Calif.))
Experiment: Preemergence weed control under flooded paddy conditions
Assay type: in vivo, Echinochloa oryzoides
Conditions: 0.0313 kg/ha, rated 3-4 weeks after treatment
value.kind: ECHORC herbicidal effect rating
Number only, no unit.

These recorded examples may help you get a feel for the data.
C=CCN1C(=O)C(CC(=O)OC)SC1=Nc1cc(-n2c(=O)cc(C(F)(F)F)n(C)c2=O)c(F)cc1Cl (stereo not drawn) : 5.0
CCOC(=O)[C@H](Cc1ccccc1)N1C(=O)CSC1=Nc1cc(-n2c(=O)cc(C(F)(F)F)n(C)c2=O)c(F)cc1Cl : 9.0

Below: the item to evaluate.
Request: Entry COC(=O)C(Cc1ccc(Cl)cc1)N1C(=O)CSC1=Nc1cc(-n2c(=O)cc(C(F)(F)F)n(C)c2=O)c(F)cc1Cl (racemic) , system ECHORC (Watergrass (Calif.)): what ECHORC herbicidal effect rating was measured?
Response: 9.0

---

Test system: TRZAWR (Wheat, Winter, cv Riband)
Experiment: Preemergence herbicidal evaluation
Assay type: in vivo, Triticum aestivum
Conditions: rate 0.1250 kg/ha; rated 4-5 weeks after treatment
value.kind: Preemergence herbicidal rating TRZAWR

Consider the reported Preemergence herbicidal rating TRZAWR for these molecules:
Cn1c(C(F)(F)F)cc(=O)n(-c2cc(N=C3SCC(=O)N3Cc3ccccc3)c(Cl)cc2F)c1=O : 0.0
CCOC(=O)CN1C(=O)CS(=O)(=O)C1=Nc1cc(-n2c(=O)cc(C(F)(F)F)n(C)c2=O)c(F)cc1Cl : 0.0
Cn1c(C(F)(F)F)cc(=O)n(-c2cc(/N=C3/SC(CC(=O)O)C(=O)N3CC(=O)O)c(Cl)cc2F)c1=O (stereo not shown) : 0.0

Now look at this entry.
Request: Provide value of Preemergence herbicidal rating TRZAWR for this record tested with TRZAWR (Wheat, Winter, cv Riband): CC(C)C[C@@H](C(=O)O)N1C(=O)CSC1=Nc1cc(-n2c(=O)cc(C(F)(F)F)n(C)c2=O)c(F)cc1Cl
Response: 1.0

---

The entries below are paired with their reported Preemergence herbicidal rating AMBEL.
Tested on: AMBEL (Ragweed, Common)
Experiment: Preemergence herbicidal evaluation
Assay type: in vivo, Ambrosia artemisifolia
Conditions: rate 0.0156 kg/ha; rated 4-5 weeks after treatment
Lab note: jot the number down without any unit.

Request: Param readout= Preemergence herbicidal rating AMBEL; system= AMBEL (Ragweed, Common); entry= Cn1c(C(F)(F)F)cc(=O)n(-c2cc(N=C3SCC(=O)N3CC(=O)OC3CCCC3)c(Cl)cc2F)c1=O ; returns value.
Response: 0.0

Request: For the record Cn1c(C(F)(F)F)cc(=O)n(-c2cc(N=C3SCC(=O)N3Cc3ccccc3)c(Cl)cc2F)c1=O , what value of Preemergence herbicidal rating AMBEL is listed for AMBEL (Ragweed, Common)?
Response: 0.0

Request: Lookup: Preemergence herbicidal rating AMBEL / AMBEL (Ragweed, Common) / CCOC(=O)CN1C(=O)C(CC(=O)OC)S/C1=N/c1cc(-n2c(=O)cc(C(F)(F)F)n(C)c2=O)c(F)cc1Cl (stereo not shown)
Response: 0.0

Request: # query: Preemergence herbicidal rating AMBEL | item CC(C)OC(=O)CN1C(=O)CSC1=Nc1cc(-n2c(=O)cc(C(F)(F)F)n(C)c2=O)c(F)cc1Cl | system: AMBEL (Ragweed, Common)
Response: 1.0

Request: Request - read-out Preemergence herbicidal rating AMBEL | tested on AMBEL (Ragweed, Common) | compound CCOC(=O)CN1C(=O)C(CCO)S/C1=N/c1cc(-n2c(=O)cc(C(F)(F)F)n(C)c2=O)c(F)cc1Cl (stereo not shown)
Response: 0.0

Request: API: value(readout=Preemergence herbicidal rating AMBEL, system=AMBEL (Ragweed, Common)) for record COC(=O)C(Cc1ccc(Cl)cc1)N1C(=O)CSC1=Nc1cc(-n2c(=O)cc(C(F)(F)F)n(C)c2=O)c(F)cc1Cl (racemic)
Response: 0.0

Request: Item C=CCN1C(=O)C(CC(=O)OC)SC1=Nc1cc(-n2c(=O)cc(C(F)(F)F)n(C)c2=O)c(F)cc1Cl (stereo not shown) with AMBEL (Ragweed, Common) - Preemergence herbicidal rating AMBEL?
Response: 2.0
